assay system: bovine trypsin (Bos taurus, UniProt P00760)
Sequence (P00760 24-246): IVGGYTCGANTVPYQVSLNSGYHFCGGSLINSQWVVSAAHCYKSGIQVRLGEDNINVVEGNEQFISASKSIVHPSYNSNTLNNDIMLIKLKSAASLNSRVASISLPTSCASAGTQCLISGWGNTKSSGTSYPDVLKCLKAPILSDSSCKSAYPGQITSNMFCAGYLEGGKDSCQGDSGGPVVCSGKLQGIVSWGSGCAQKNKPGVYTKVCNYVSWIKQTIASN
assay text: Trypsin inhibitory activity of peptides (BApNA hydrolysis, OD405; IC50, Ki, residual activity)
Assay type: biochemical
experimental parameters: peptide 0.098 μM
Bridge positions count the residues as written; N and C are the ends. Peptide text beside a SMILES is read from it.
property measured: Residual trypsin activity (%)
Lab book: enter the figure in %, no units written.

Kindly indicate its recorded Residual trypsin activity. Item: CC[C@H](C)[C@@H]1NC(=O)[C@@H]2CCCN2C(=O)[C@@H]2CCCN2C(=O)[C@H]([C@@H](C)CC)NC(=O)[C@H](CO)NC(=O)[C@H](CCCCN)NC(=O)[C@H]([C@@H](C)O)NC(=O)[C@H](C)NC(=O)[C@H](CCCCN)NC(=O)[C@H](C)NC(=O)CNC(=O)[C@@H](N)CSSC[C@@H](C(=O)N[C@@H](Cc2ccccc2)C(=O)N2CCC[C@H]2C(=O)N[C@@H](CC(=O)O)C(=O)O)NC1=O [BT3] (H-CGAKATKSIPPICFPD-OH; disulfide 1-13; N-terminus and C-terminus assumed)
95.7

* * *

α-chymotrypsin (Bos taurus) measurements of pKi, listed per entry.
Bridge positions count the residues as written; N and C are the ends. Square brackets hold non-standard residues; d marks the D form. Peptide text beside a SMILES is read from it. Hyp = O=C(O)[C@@H]1C[C@@H](O)CN1
Keep in mind that pKi stands for -log10 of concentration in molar terms.

Kindly indicate its recorded pKi. Item: CC[C@H](C)[C@@H]1NC(=O)[C@H](CO)NC(=O)[C@H](Cc2ccc(O)cc2)NC(=O)[C@H]([C@@H](C)O)NC(=O)[C@@H](NC(=O)[C@@H](N)Cc2ccccc2)CSSC[C@@H](C(=O)N[C@@H](Cc2ccc(O)cc2)C(=O)NCC(=O)O)NC(=O)[C@H](CCC(N)=O)NC(=O)[C@@H]2CCCN2C(=O)[C@@H]2C[C@@H](O)CN2C1=O [CH53, FCTYSIHypPQCYG] (H-FCTYSI[Hyp]PQCYG-OH; disulfide 2-10; C-terminus assumed)
6.96

Kindly indicate its recorded pKi. Item: CC[C@H](C)[C@H](N)C(=O)N[C@H]1CSSC[C@@H](C(=O)N[C@H](C(=O)O)[C@@H](C)CC)NC(=O)[C@H](CCC(N)=O)NC(=O)[C@H](C)NC(=O)[C@@H]2CCCN2C(=O)[C@H]([C@@H](C)CC)NC(=O)[C@H](CO)NC(=O)[C@H](Cc2ccc(O)cc2)NC(=O)[C@H]([C@@H](C)O)NC1=O [CH47] (H-ICTYSIPAQCI-OH; disulfide 2-10; N-terminus and C-terminus assumed)
5.43

Kindly indicate its recorded pKi. Item: CC[C@H](C)[C@@H]1NC(=O)[C@H](CO)NC(=O)[C@H](Cc2ccc(O)cc2)NC(=O)[C@H]([C@@H](C)O)NC(=O)[C@@H](NC(=O)[C@@H](N)CO)CSSC[C@@H](C(=O)N[C@@H](Cc2ccc(O)cc2)C(=O)NCC(=O)O)NC(=O)[C@H](CCC(N)=O)NC(=O)[C@@H]2CCCN2C(=O)[C@@H]2CCCN2C1=O [CH4] (H-SCTYSIPPQCYG-OH; disulfide 2-10; N-terminus and C-terminus assumed)
6.26

Kindly indicate its recorded pKi. Item: CC[C@H](C)[C@@H]1NC(=O)[C@H](CO)NC(=O)[C@H](Cc2ccc(O)cc2)NC(=O)[C@H]([C@@H](C)O)NC(=O)[C@H](C)NC(=O)[C@H](CO)NC(=O)CNC(=O)[C@@H](N)CSSC[C@@H](C(=O)N[C@@H](Cc2ccccc2)C(=O)NCC(=O)O)NC(=O)[C@H](CCCCN)NC(=O)[C@H](C)NC(=O)[C@@H]2CCCN2C1=O [CH24] (H-CGSATYSIPAKCFG-OH; disulfide 1-12; N-terminus and C-terminus assumed)
5.58

Kindly indicate its recorded pKi. Item: CC[C@H](C)[C@@H]1NC(=O)[C@@H]2CCCN2C(=O)[C@@H]2CCCN2C(=O)[C@H]([C@@H](C)CC)NC(=O)[C@H](CO)NC(=O)[C@H](Cc2ccccc2)NC(=O)[C@H]([C@@H](C)O)NC(=O)[C@H](C)NC(=O)[C@H]([C@@H](C)O)NC(=O)CNC(=O)[C@@H](N)CSSC[C@@H](C(=O)N[C@@H](CC(N)=O)C(=O)O)NC1=O [CH27] (H-CGTATFSIPPICN-OH; disulfide 1-12; N-terminus and C-terminus assumed)
5.54

Kindly indicate its recorded pKi. Item: CC[C@H](C)[C@@H]1NC(=O)[C@H](CO)NC(=O)[C@H](Cc2ccc(O)cc2)NC(=O)[C@H]([C@@H](C)O)NC(=O)[C@H](C)NC(=O)[C@H](CO)NC(=O)CNC(=O)[C@@H](N)CSSC[C@@H](C(=O)N[C@@H](Cc2ccc(O)cc2)C(=O)O)NC(=O)[C@H](CCC(N)=O)NC(=O)[C@@H]2CCCN2C(=O)[C@@H]2CCCN2C1=O [CH9] (H-CGSATYSIPPQCY-OH; disulfide 1-12; N-terminus and C-terminus assumed)
4.91
